system: Mu-type opioid receptor (Homo sapiens)
Sequence (P35372 whole entry): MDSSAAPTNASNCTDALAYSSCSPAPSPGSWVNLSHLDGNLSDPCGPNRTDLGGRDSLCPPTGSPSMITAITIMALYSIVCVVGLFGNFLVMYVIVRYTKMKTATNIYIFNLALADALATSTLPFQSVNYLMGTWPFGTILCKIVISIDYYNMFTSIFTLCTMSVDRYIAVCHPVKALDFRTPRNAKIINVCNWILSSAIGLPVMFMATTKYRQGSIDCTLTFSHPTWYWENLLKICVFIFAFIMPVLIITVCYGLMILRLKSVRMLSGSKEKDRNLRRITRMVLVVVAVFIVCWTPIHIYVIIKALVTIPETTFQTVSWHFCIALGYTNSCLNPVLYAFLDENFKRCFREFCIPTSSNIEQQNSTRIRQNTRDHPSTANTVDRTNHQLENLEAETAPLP
measurement-description: Displacement of [3H]-diprenorphine from recombinant human MOR transiently expressed in HEK293 cell membranes measured after 60 mins
pKi: −log10 of the molar value.
Classification field: Yes = pKi at or over 7; No = pKi under 7.

molecular-string	system	class-label
CN1/C(=C/C=C/C2=[N+](CCCCCC(=O)NCCCNC(=N)Nc3ccc4[nH]c5c(c4c3)C[C@@]3(O)[C@H]4Cc6ccc(O)c7c6[C@@]3(CCN4CC3CC3)[C@H]5O7)c3ccc(S(=O)(=O)[O-])cc3C2(C)C)C(C)(C)c2cc(S(=O)(=O)O)ccc21	Mu-type opioid receptor (Homo sapiens)	No
CN1/C(=C/C=C/C=C/C2=[N+](CCCCCC(=O)NCCCNC(=N)Nc3ccc4[nH]c5c(c4c3)C[C@@]3(O)[C@H]4Cc6ccc(O)c7c6[C@@]3(CCN4CC3CC3)[C@H]5O7)c3ccc(S(=O)(=O)[O-])cc3C2(C)C)C(C)(C)c2cc(S(=O)(=O)O)ccc21	Mu-type opioid receptor (Homo sapiens)	Yes

====

system: Kappa-type opioid receptor (Homo sapiens)
Sequence (P41145 whole entry): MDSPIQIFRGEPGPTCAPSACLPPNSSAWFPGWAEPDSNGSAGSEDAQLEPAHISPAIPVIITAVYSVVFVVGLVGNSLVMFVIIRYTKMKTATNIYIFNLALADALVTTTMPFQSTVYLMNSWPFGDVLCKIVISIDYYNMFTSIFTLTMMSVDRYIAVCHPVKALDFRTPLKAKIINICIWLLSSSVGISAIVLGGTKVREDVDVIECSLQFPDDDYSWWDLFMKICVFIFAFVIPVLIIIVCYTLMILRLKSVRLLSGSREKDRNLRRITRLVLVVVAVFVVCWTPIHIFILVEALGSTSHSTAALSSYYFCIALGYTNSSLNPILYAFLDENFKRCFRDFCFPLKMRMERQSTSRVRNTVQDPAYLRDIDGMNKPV
measurement-description: Inverse agonist activity at recombinant human KOR transiently expressed in HEK293T cells co-expressing G-alphaqi assessed as reduction in dynorphin A-stimulated inositol phosphate accumulation measured after 180 mins by HTRF assay
Assay type: functional, cell-based
The source made the active and inactive calls. The calls are words filed in the database; no cut-off is given here.

molecular-string	Activity
CN1/C(=C/C=C/C2=[N+](CCCCCC(=O)NCCCNC(=N)Nc3ccc4[nH]c5c(c4c3)C[C@@]3(O)[C@H]4Cc6ccc(O)c7c6[C@@]3(CCN4CC3CC3)[C@H]5O7)c3ccc(S(=O)(=O)[O-])cc3C2(C)C)C(C)(C)c2cc(S(=O)(=O)O)ccc21	Active
CN1/C(=C/C=C/C=C/C2=[N+](CCCCCC(=O)NCC(=O)NCC(=O)NCC(=O)NCC(=O)NCCCNC(=N)Nc3ccc4[nH]c5c(c4c3)C[C@@]3(O)[C@H]4Cc6ccc(O)c7c6[C@@]3(CCN4CC3CC3)[C@H]5O7)c3ccc(S(=O)(=O)[O-])cc3C2(C)C)C(C)(C)c2cc(S(=O)(=O)O)ccc21	inactive
CN1/C(=C/C=C/C=C/C2=[N+](CCCCCC(=O)NCC(=O)NCC(=O)NCCCNC(=N)Nc3ccc4[nH]c5c(c4c3)C[C@@]3(O)[C@H]4Cc6ccc(O)c7c6[C@@]3(CCN4CC3CC3)[C@H]5O7)c3ccc(S(=O)(=O)[O-])cc3C2(C)C)C(C)(C)c2cc(S(=O)(=O)O)ccc21	inactive
CN1/C(=C/C=C/C2=[N+](CCCCCC(=O)NCC(=O)NCC(=O)NCC(=O)NCC(=O)NCCCNC(=N)Nc3ccc4[nH]c5c(c4c3)C[C@@]3(O)[C@H]4Cc6ccc(O)c7c6[C@@]3(CCN4CC3CC3)[C@H]5O7)c3ccc(S(=O)(=O)[O-])cc3C2(C)C)C(C)(C)c2cc(S(=O)(=O)O)ccc21	inactive
CN1/C(=C/C=C/C=C/C2=[N+](CCCCCC(=O)NCCCNC(=N)Nc3ccc4[nH]c5c(c4c3)C[C@@]3(O)[C@H]4Cc6ccc(O)c7c6[C@@]3(CCN4CC3CC3)[C@H]5O7)c3ccc(S(=O)(=O)[O-])cc3C2(C)C)C(C)(C)c2cc(S(=O)(=O)O)ccc21	Active

====

system: Delta-type opioid receptor (Homo sapiens, UniProt P41143)
Sequence (P41143 whole entry): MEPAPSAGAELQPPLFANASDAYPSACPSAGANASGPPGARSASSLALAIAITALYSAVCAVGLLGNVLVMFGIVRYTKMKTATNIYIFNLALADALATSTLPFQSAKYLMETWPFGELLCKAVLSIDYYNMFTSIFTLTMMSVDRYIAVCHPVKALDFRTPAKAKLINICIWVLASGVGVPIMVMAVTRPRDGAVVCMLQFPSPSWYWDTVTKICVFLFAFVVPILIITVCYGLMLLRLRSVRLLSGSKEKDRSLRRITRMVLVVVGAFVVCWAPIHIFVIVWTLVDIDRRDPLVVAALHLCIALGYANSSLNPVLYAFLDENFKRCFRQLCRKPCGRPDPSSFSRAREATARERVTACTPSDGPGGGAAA
measurement-description: Displacement of [3H]-diprenorphine from recombinant human DOR transiently expressed in HEK293 cell membranes measured after 60 mins
pKi: −log10 of the molar value.
Classification field: y = pKi at or over 7; n = pKi under 7.

molecular-string	class-label
CN1/C(=C/C=C/C=C/C2=[N+](CCCCCC(=O)NCC(=O)NCC(=O)NCC(=O)NCC(=O)NCCCNC(=N)Nc3ccc4[nH]c5c(c4c3)C[C@@]3(O)[C@H]4Cc6ccc(O)c7c6[C@@]3(CCN4CC3CC3)[C@H]5O7)c3ccc(S(=O)(=O)[O-])cc3C2(C)C)C(C)(C)c2cc(S(=O)(=O)O)ccc21	n
CN1/C(=C/C=C/C2=[N+](CCCCCC(=O)NCCCNC(=N)Nc3ccc4[nH]c5c(c4c3)C[C@@]3(O)[C@H]4Cc6ccc(O)c7c6[C@@]3(CCN4CC3CC3)[C@H]5O7)c3ccc(S(=O)(=O)[O-])cc3C2(C)C)C(C)(C)c2cc(S(=O)(=O)O)ccc21	y
CN1/C(=C/C=C/C=C/C2=[N+](CCCCCC(=O)NCCCNC(=N)Nc3ccc4[nH]c5c(c4c3)C[C@@]3(O)[C@H]4Cc6ccc(O)c7c6[C@@]3(CCN4CC3CC3)[C@H]5O7)c3ccc(S(=O)(=O)[O-])cc3C2(C)C)C(C)(C)c2cc(S(=O)(=O)O)ccc21	y
CN1/C(=C/C=C/C2=[N+](CCCCCC(=O)NCC(=O)NCC(=O)NCC(=O)NCC(=O)NCCCNC(=N)Nc3ccc4[nH]c5c(c4c3)C[C@@]3(O)[C@H]4Cc6ccc(O)c7c6[C@@]3(CCN4CC3CC3)[C@H]5O7)c3ccc(S(=O)(=O)[O-])cc3C2(C)C)C(C)(C)c2cc(S(=O)(=O)O)ccc21	n
